B1: glmS ribozyme (parent)
chain: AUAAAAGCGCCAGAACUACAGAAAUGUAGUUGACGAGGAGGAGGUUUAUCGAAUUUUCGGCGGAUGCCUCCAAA

Variants of: B1
Method: self-cleavage kobs at 10000 uM GlcN6P; higher = faster cleavage; RNA array
Settings: with glucosamine-6-phosphate
Variants at the floor of the assay were thinned out.
Category | rule: reported self-cleavage kobs at 10000 uM GlcN6P within range, see lower range: < 0.0001 s⁻¹; middle range: ≥ 0.0001 s⁻¹ and < 0.002 s⁻¹; upper range: ≥ 0.002 s⁻¹

INSERT INTO measurements (variant_key, assigned_category) VALUES
  ('U56A U57C', 'middle range'),
  ('G7C U47C', 'lower range'),
  ('A48G C71U', 'lower range'),
  ('U55G C58G', 'lower range'),
  ('A15G U45A', 'upper range'),
  ('U30C A36U G44U C67G', 'lower range'),
  ('G66A C70G', 'upper range'),
  ('A42G A48U U55G', 'middle range'),
  ('U47G G66A C70U', 'upper range'),
  ('A6U C8U', 'lower range'),
  ('G62U C67U', 'lower range'),
  ('G51C A64U', 'lower range'),
  ('C16U G44A', 'middle range'),
  ('C11G G40A U45G', 'lower range'),
  ('C11U G40C C71U', 'middle range'),
  ('A15G U30G', 'upper range'),
  ('G9A A15U G29U C68G', 'lower range'),
  ('G9A A15U A39G A52U G60U', 'lower range'),
  ('U49C C61A C70U', 'lower range'),
  ('U30C G32A', 'middle range'),
  ('A6U U30C U31G', 'lower range'),
  ('U55A U57G', 'lower range');
